Give measured MCH for each item. Keep answers brief.
species: Rattus norvegicus; experiment: Open TG-GATES - Regimen: Daily Repeat; format: toxicity, organism-based, Sprague-Dawley; parameters: regimen Daily Repeat, gender Male, age 6 weeks; settings: in vivo, po, 300 mg/kg, […], tissue Blood, route gavage, dose level Middle, time 7 day
Numbers only, in pg.

Reference set, count: 3
>  <molecule>
CCCCNC(=O)NS(=O)(=O)c1ccc(C)cc1 [TOLBUTAMIDE]

>  <MCH [pg]>
20.9

$$$$
>  <molecule>
CC(=O)[C@@]1(O)CC[C@H]2[C@@H]3C=C(Cl)C4=CC(=O)CC[C@]4(C)[C@H]3CC[C@@]21C

>  <MCH [pg]>
20.8

$$$$
>  <molecule>
CC(S)C(=O)NCC(=O)O (centres undefined)

>  <MCH [pg]>
21.7

$$$$

Okay, now this molecule:
Dear colleague, I am looking for the recorded MCH of the following molecule: O=C(O)c1ccccc1Nc1ccccc1
20.8

---

organism: Rattus norvegicus; assay: Open TG-GATES - Regimen: Daily Repeat; type: toxicity, organism-based, Sprague-Dawley; parameters: regimen Daily Repeat, gender Male, age 6 weeks; details: in vivo, po, 0 mg/kg, 72 h, tissue Plasma, route gavage, dose level Control, time 3 day
endpoint_name: DBIL

Reference set, count: 2
>  <molecule>
COc1ccc([C@@H]2Sc3ccccc3N(CCN(C)C)C(=O)[C@@H]2OC(C)=O)cc1

>  <DBIL>
0.016 mg/dL

$$$$
>  <molecule>
CC(S)C(=O)NCC(=O)O (stereo not drawn)

>  <DBIL>
0 mg/dL

$$$$

Okay, now this molecule:
Dear colleague, I am looking for the recorded DBIL of the following molecule: CCN(CC)C(=S)SSC(=S)N(CC)CC
0 mg/dL

---

organism: Rattus norvegicus; test: Open TG-GATES - Regimen: Daily Repeat; type: toxicity, organism-based, Sprague-Dawley; design: regimen Daily Repeat, gender Male, age 6 weeks; details: in vivo, po, 300 mg/kg, 72 h, tissue Blood, route gavage, dose level Middle, time 3 day
Give measured Plat for each item. Keep answers brief.
Numbers only, in x10_4/uL.

>  <compound>
CC(S)C(=O)NCC(=O)O (centres undefined)

>  <endpoint_name>
Plat

>  <recorded_value>
132

$$$$

# return Plat for each item in the list
1. CC(=O)[C@@]1(O)CC[C@H]2[C@@H]3C=C(Cl)C4=CC(=O)CC[C@]4(C)[C@H]3CC[C@@]21C
2. O=C(O)c1ccccc1Nc1ccccc1
3. CCCCNC(=O)NS(=O)(=O)c1ccc(C)cc1 [TOLBUTAMIDE]

130.2
137.1
122.8

---

species on record: Rattus norvegicus; assay: Open TG-GATES - Regimen: Single; type: toxicity, organism-based, Sprague-Dawley; set-up: regimen Single, gender Male, age 6 weeks; conditions: in vivo, po, 0 mg/kg, 3 h, tissue Plasma, route gavage, dose level Control
endpoint_name: PL (mg/dL)
Give bare numbers, in mg/dL.

>  <compound>
Nc1ccc(Cc2ccc(N)cc2)cc1

>  <measurement_units>
mg/dL

>  <recorded_value>
149.8

$$$$
>  <compound>
O=c1ccc2ccccc2o1

>  <measurement_units>
mg/dL

>  <recorded_value>
158.2

$$$$
>  <compound>
CCO

>  <measurement_units>
mg/dL

>  <recorded_value>
145.8

$$$$
>  <compound>
C=C[C@H]1C[N@@]2CC[C@H]1C[C@@H]2[C@@H](O)c1ccnc2ccc(OC)cc12

>  <measurement_units>
mg/dL

>  <recorded_value>
136

$$$$
>  <compound>
CN(C/C=C/C#CC(C)(C)C)Cc1cccc2ccccc12

>  <measurement_units>
mg/dL

>  <recorded_value>
151.8

$$$$

Dear colleague, I am looking for the recorded PL of the following compound: NS(=O)(=O)c1cc(C(=O)O)c(NCc2ccco2)cc1Cl [FUROSEMIDE]
137.6

---

Give measured MCH for each item. Keep answers brief.
species: Rattus norvegicus; assay: Open TG-GATES - Regimen: Single; type: toxicity, organism-based, Sprague-Dawley; set-up: regimen Single, gender Male, age 6 weeks; conditions: in vivo, po, 0 mg/kg, 9 h, tissue Blood, route gavage, dose level Control
Answers are plain numbers, in pg.

Reference set, count: 5
>  <compound>
O=c1ccc2ccccc2o1 [COUMARIN]

>  <measurement_units>
pg

>  <MCH>
21.9

$$$$
>  <compound>
Nc1ccc(Cc2ccc(N)cc2)cc1

>  <measurement_units>
pg

>  <MCH>
21.1

$$$$
>  <compound>
COc1cc2ncnc(Nc3ccc(F)c(Cl)c3)c2cc1OCCCN1CCOCC1 [GEFITINIB]

>  <measurement_units>
pg

>  <MCH>
21.3

$$$$
>  <compound>
CN(CCOc1ccc(CC2SC(=O)NC2=O)cc1)c1ccccn1.O=C(O)/C=C\C(=O)O (stereo not drawn) [ROSIGLITAZONE MALEATE]

>  <measurement_units>
pg

>  <MCH>
21.6

$$$$
>  <compound>
CCN(CC)C(=S)SSC(=S)N(CC)CC

>  <measurement_units>
pg

>  <MCH>
20.2

$$$$

# return MCH for each item in the list
1. CCCCNC(=O)NS(=O)(=O)c1ccc(C)cc1 [TOLBUTAMIDE]
2. CCO [ALCOHOL]

21
21.8

---

organism: Rattus norvegicus; assay: Open TG-GATES - Regimen: Single; assay type: toxicity, organism-based, Sprague-Dawley; parameters: regimen Single, gender Male, age 6 weeks; conditions: in vivo, po, 0 mg/kg, 6 h, tissue Plasma, route gavage, dose level Control
Give measured TBIL for each item. Keep answers brief.
One number for each entry, in mg/dL.

# return TBIL for each item in the list
1. CCN(CC)C(=S)SSC(=S)N(CC)CC
2. COc1ccc([C@@H]2Sc3ccccc3N(CCN(C)C)C(=O)[C@@H]2OC(C)=O)cc1
3. NS(=O)(=O)c1cc(C(=O)O)c(NCc2ccco2)cc1Cl [FUROSEMIDE]

[0.004, 0.038, 0.062]

# return TBIL for each item in the list
1. O=c1ccc2ccccc2o1
2. CC(S)C(=O)NCC(=O)O (stereo not given)
3. CN(C)CCCN1c2ccccc2Sc2ccc(Cl)cc21
4. Nc1ccc(Cc2ccc(N)cc2)cc1
5. C=C[C@H]1C[N@@]2CC[C@H]1C[C@@H]2[C@@H](O)c1ccnc2ccc(OC)cc12
6. CCO

[0.3, 0.022, 0.1, 0.062, 0.018, 0.4]

Dear colleague, I am looking for the recorded TBIL of the following molecule: CCCCNC(=O)NS(=O)(=O)c1ccc(C)cc1 [TOLBUTAMIDE]
0.078

---

Give measured TERMINAL_BW for each item. Keep answers brief.
species: Rattus norvegicus; assay: Open TG-GATES - Regimen: Single; assay type: toxicity, organism-based, Sprague-Dawley; set-up: regimen Single, gender Male, age 6 weeks; details: in vivo, po, 0 mg/kg, 9 h, route gavage, dose level Control
Answers are plain numbers, in g.

Reference set, count: 4
>  <molecule>
CCCCNC(=O)NS(=O)(=O)c1ccc(C)cc1 [TOLBUTAMIDE]

>  <recorded_value>
202.2

$$$$
>  <molecule>
CC(=O)[C@@]1(O)CC[C@H]2[C@@H]3C=C(Cl)C4=CC(=O)CC[C@]4(C)[C@H]3CC[C@@]21C

>  <recorded_value>
217.4

$$$$
>  <molecule>
O=C(O)c1ccccc1Nc1ccccc1

>  <recorded_value>
204.4

$$$$
>  <molecule>
CCO

>  <recorded_value>
201.1

$$$$

# return TERMINAL_BW for each item in the list
1. CN(C/C=C/C#CC(C)(C)C)Cc1cccc2ccccc12
2. NS(=O)(=O)c1cc(C(=O)O)c(NCc2ccco2)cc1Cl [FUROSEMIDE]
3. COc1cc2ncnc(Nc3ccc(F)c(Cl)c3)c2cc1OCCCN1CCOCC1
4. CN(C)CCCN1c2ccccc2Sc2ccc(Cl)cc21
5. CC(S)C(=O)NCC(=O)O (stereo not given)
6. Nc1ccc(Cc2ccc(N)cc2)cc1

[219.8, 206.6, 210, 219.8, 209.7, 204.2]

---

species: Rattus norvegicus; assay: Open TG-GATES - Regimen: Daily Repeat; format: toxicity, organism-based, Sprague-Dawley; set-up: regimen Daily Repeat, gender Male, age 6 weeks; conditions: in vivo, po, 1000 mg/kg, […], tissue Blood, route gavage, dose level High, time 14 day
Give measured Hb for each item. Keep answers brief.
Numbers only, in g/dL.

Reference set, count: 3
>  <compound>
O=C(O)c1ccccc1Nc1ccccc1

>  <Hb, g/dL>
14

$$$$
>  <compound>
CC(S)C(=O)NCC(=O)O (centres undefined)

>  <Hb, g/dL>
13.9

$$$$
>  <compound>
CC(=O)[C@@]1(O)CC[C@H]2[C@@H]3C=C(Cl)C4=CC(=O)CC[C@]4(C)[C@H]3CC[C@@]21C

>  <Hb, g/dL>
15.2

$$$$

Dear colleague, I am looking for the recorded Hb of the following compound: CCCCNC(=O)NS(=O)(=O)c1ccc(C)cc1 [TOLBUTAMIDE]
14.3
